Each entry below carries its recorded GI50.
Test system: HCT-116 colon
Assay: NCI tumour cell line growth inhibition, 48 h

>  <MOLECULE>
O=S(=O)(N=C1C(Cl)=C(Cl)C(=NS(=O)(=O)c2ccccc2)C(Cl)=C1Cl)c1ccccc1

>  <METRIC>
GI50

>  <RESULT>
13.6 µM

$$$$
>  <MOLECULE>
CC1SC(c2ccccc2Cl)N(NC(=O)C(O)c2ccccc2)C1=O (centres undefined)

>  <METRIC>
GI50

>  <RESULT>
96.1 µM

$$$$
>  <MOLECULE>
CCN(CC)CCN(CC)CC.CCN(CC)CCN(CC)CC.[Cu+2].[Cu+2].[O-][Cl+3]([O-])([O-])[O-].[OH3+].[OH3+]

>  <METRIC>
GI50

>  <RESULT>
40.2 µM

$$$$

Identify measured GI50 associated with `COC[C@H](NC(=O)c1cnc(C)s1)C(=O)N[C@@H](COC)C(=O)N[C@@H](Cc1ccccc1)C(=O)[C@@]1(C)CO1` 9.27 µM

----------
Tested on: RPMI-8226 leukemia
Assay: NCI tumour cell line growth inhibition, 48 h
METRIC: TGI

Completed entries (count: 5):
>  <MOLECULE>
C[C@H](Nc1nc(N)c(N=O)c(=O)n1C)C(=O)O

>  <MEASURED_ON>
RPMI-8226 leukemia

>  <TGI>
> 10 µM

$$$$
>  <MOLECULE>
CN(O)C(=O)CCC(NC(=O)CCC(N)C(=O)O)C(=O)NCC(=O)O (stereo not drawn)

>  <MEASURED_ON>
RPMI-8226 leukemia

>  <TGI>
> 100 µM

$$$$
>  <MOLECULE>
COC(=O)/C=C1/SC(=Nc2cccc(Cl)c2)N(CCc2c[nH]c3ccc(O)cc23)C1=O

>  <MEASURED_ON>
RPMI-8226 leukemia

>  <TGI>
3.98 µM

$$$$
>  <MOLECULE>
Fc1cc(C2=Nn3c(COc4ccccc4Cl)nnc3S/C2=C\c2ccc(Cl)cc2)c(Cl)cc1Cl

>  <MEASURED_ON>
RPMI-8226 leukemia

>  <TGI>
> 100 µM

$$$$
>  <MOLECULE>
CCn1c(SCC(=O)N/N=C2\SCC(=O)N2c2ccc(C)cc2)nc2ccccc2c1=O

>  <MEASURED_ON>
RPMI-8226 leukemia

>  <TGI>
52.7 µM

$$$$

Identify the reported TGI for the following entry. CCOC(=O)CNC(=O)C(CCC(=O)N(C)O)NC(=O)CCC(N)C(=O)O (stereo not drawn) > 100 µM

----------
Listed next: entries and their corresponding TGI.
System: HCC-2998 colon
Test: NCI tumour cell line growth inhibition, 48 h

>  <MOLECULE>
C(=N\c1nc2cc3sc(/N=C/c4ccccc4)nc3cc2s1)/c1ccccc1

>  <TGI>
> 100 µM

$$$$

Provide only the value of recorded TGI for `NCC(=O)Nc1ccccc1` > 100 µM

Please supply the value of reported TGI for the item `O=C(Cc1ccc2ccccc2c1)NCc1ccc(C(=O)NCCc2ccccc2)cc1` > 100 µM

----------
Tested on: UO-31 renal
Assay: NCI tumour cell line growth inhibition, 48 h
Known TGI of a selection of compounds

>  <SMI>
COC(=O)C1=CO[C@@H](C)[C@@H]2Cn3ccc4c5ccccc5nc-4c3C[C@H]12

>  <METRIC>
TGI

>  <RESULT>
> 100 µM

$$$$
>  <SMI>
O=c1cc(-c2ccc(F)cc2)[nH]c2ncccc12

>  <METRIC>
TGI

>  <RESULT>
> 100 µM

$$$$

Next, consider the following compound.
Indicate the recorded TGI value for this compound: `O=C(O)c1cccc(S(=O)(=O)NCCO)c1` > 100 µM

Source: PubChem BioAssay (NCI)
